Biological target: CLOCK PAS–A (murine CLOCK PAS-A domain, mCLOCK) (Mus musculus)
Sequence (O08785 103-265): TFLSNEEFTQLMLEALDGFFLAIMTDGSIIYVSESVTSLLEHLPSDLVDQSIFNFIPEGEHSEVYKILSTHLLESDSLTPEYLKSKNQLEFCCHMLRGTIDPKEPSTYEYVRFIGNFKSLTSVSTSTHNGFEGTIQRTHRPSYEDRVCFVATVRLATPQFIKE
RECORDED METRIC: Kd (µM)
Kindly answer with a numeric value in µM, unit omitted.

# input Field request: Kd | item: C=CC1=C(C)C2=Cc3c(C=C)c(C)c4[n]3[Fe]([Cl])[n]3c(c(C)c(CCC(=O)O)c3=CC3=NC(=C4)C(C)=C3CCC(=O)O)=CC1=N2 [hemin]
# output 1.05
